# Tgt: human somatostatin receptor subtype SSTR2 (human) (UniProt P30874)
# Sequence (P30874 whole entry): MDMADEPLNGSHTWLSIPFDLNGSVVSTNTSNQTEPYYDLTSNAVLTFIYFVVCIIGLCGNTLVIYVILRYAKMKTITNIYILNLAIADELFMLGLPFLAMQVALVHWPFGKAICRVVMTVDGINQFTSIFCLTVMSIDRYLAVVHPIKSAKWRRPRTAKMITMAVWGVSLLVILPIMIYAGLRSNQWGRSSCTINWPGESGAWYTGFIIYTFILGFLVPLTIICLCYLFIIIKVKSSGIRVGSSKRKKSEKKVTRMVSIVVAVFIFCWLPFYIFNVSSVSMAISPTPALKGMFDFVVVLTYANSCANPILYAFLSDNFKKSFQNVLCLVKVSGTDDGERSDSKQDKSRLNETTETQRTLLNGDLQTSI
# Assay remarks: FACS, transfected HEK-293 cells
*1 amine or outer side, *2 acyl side, *3 side chain or, on linkers, in order; H or OH if unused. Bridges are numbered along the chain shown (N, C = ends). Primed or numbered codes have the meaning given here. [ ]: non-standard residue; d: D form. N(2-mercaptoethyl)Gly = O=C(CN(CCS[*:3])[*:1])[*:2]; FITC′ = fluorescein isothiocyanate; Orn = NCCC[C@H](N)C(=O)O; GABA = NCCCC(=O)O
Listed here: items and their measured Relative binding affinity.
Measured endpoint: Relative binding affinity (%)

1. {FITC′-GABA}-[dF]CYW[dW]KTF[N(2-mercaptoethyl)Gly]-NH2 (disulfide 2-9) [Compound 4] :: 4.3
2. {FITC′-GABA}-[dF]CY[dW][Orn]TF[N(2-mercaptoethyl)Gly]-NH2 (disulfide 2-8) [Compound 7] :: 1
3. XCFWXXTFX (FITC-GABA-DPhe-Cys*-Phe-Trp-DTrp-Orn-Thr-Phe-GlyS2*-NH2 (* = S-S bond; GlyS2 = N-thioethyl glycine; Orn = ornithine; C-terminal amide)) [Compound 3] :: 4.3
4. {FITC′-GABA}-[dF]RCF[dW][Orn]TF[N(2-mercaptoethyl)Gly]-NH2 (disulfide 3-9) [Compound 5] :: 1
